# Tested on: Salmonella enteritidis IID 604
# ASSAY_TEXT: Antibacterial activity (MIC), standard agar dilution streak method
# Assay type: cell-based
# CONDITION_CONTEXT: Salmonella enterica; Salmonella enteritidis IID 604; read-out: Minimum inhibitory concentration
# Experimental: The antibacterial activities of the compounds of the present invention were assayed by the standard agar dilution streak method against Gram-positive and Gram-negative bacteria [Chemotherapy, 22, 1126 (1974)].
PARAMETER_MEASURED: log10(MIC) (log10 of the value in µg/mL)
In our notation, the value equals log10 of MIC in µg/mL.

// for each compound below, give its log10(MIC)
1. CCCn1cc(C(=O)O)c(=O)c2cc(F)c(N3CCNCC3)c(F)c21.Cl
2. Cl.O=C(O)c1cn(CCF)c2c(F)c(N3CCNCC3)c(F)cc2c1=O
3. C=CCn1cc(C(=O)O)c(=O)c2cc(F)c(N3CCNCC3)c(F)c21.Cl
4. CCn1cc(C(=O)O)c(=O)c2cc(F)c(N3CCC(N(C)C)CC3)c(F)c21

Ans.
1: -0.70; 2: -1.30; 3: -0.70; 4: -0.11

// for each compound below, give its log10(MIC)
1. CCn1cc(C(=O)O)c(=O)c2cc(F)c(N3CCOCC3)c(F)c21
2. Cl.Cn1cc(C(=O)O)c(=O)c2cc(F)c(N3CCNCC3)c(F)c21

Ans.
1. 0.19
2. -1.00

// for each compound below, give its log10(MIC)
1. CCn1cc(C(=O)O)c(=O)c2cc(F)c(N3CCCC3)c(F)c21
2. CCn1cc(C(=O)O)c(=O)c2cc(F)c(N3CCN(CCO)CC3)c(F)c21
3. CCn1cc(C(=O)O)c(=O)c2cc(F)c(N3CCCC(O)C3)c(F)c21 (stereo not drawn)
4. C=CCN1CCN(c2c(F)cc3c(=O)c(C(=O)O)cn(CC)c3c2F)CC1
5. Cl.O=C(O)c1cn(CCO)c2c(F)c(N3CCNCC3)c(F)cc2c1=O
6. CCn1cc(C(=O)O)c(=O)c2cc(F)c(N3CCC(O)CC3)c(F)c21

Ans.
1: 0.19; 2: -0.11; 3: 0.80; 4: 0.19; 5: -0.41; 6: 0.19
